- test_target: short form of the GPR120 receptor (GPR120S) (Homo sapiens, UniProt Q5NUL3)
- assay: Human GPR120 DiscoveRx PathHunter Beta-Arrestin assay, Procedure β-arrestin B
- conditions: PathHunter CHO-K1 GPR120S β-Arrestin cell line, 5000 cells/well, read-out: hGPR120 β-arrestin B EC50
- Source text: The binding of an agonist (medium/long chain fatty acids or small molecule agonists) to the G-protein-coupled receptor GPR120 activates phospholipase C, leading to release of intracellular Ca^+2 through the generation of inositol 1,4,5-trisphosphate (InsP3 or IP3). […] In the present method, agonist-induced activation of the human GPR120 receptor is monitored through the use of PathHunter CHO-K1 GPR120 Beta-Arrestin Cell Line engineered by DiscoveRx, as detailed below. […]
pEC50: −log10 of the molar value.
Decide by pEC50: equal to or exceeding 7 means Satisfied, less means Not satisfied.

INSERT INTO results (molecule, group) VALUES
  ('CCc1ccc(-c2nsc(C(F)(F)F)c2COc2c(F)cc(CCC(=O)O)cc2F)c(F)c1 [Cpd 128]', 'Satisfied'),
  ('O=C(O)CCc1cc(F)c(OCc2c(-c3ccc(Cl)c(F)c3)nsc2C(F)(F)F)c(F)c1 [Cpd 67]', 'Satisfied'),
  ('O=C(O)CCc1cc(F)c(OCc2c(-c3ccc(Cl)cn3)nsc2C(F)(F)F)c(F)c1 [Cpd 270]', 'Not satisfied'),
  ('Cc1c(CCC(=O)O)ccc(OCc2c(C3CC(F)(F)C3)nsc2C(F)(F)F)c1C [Cpd 137]', 'Not satisfied');

Hi team, for OCCCc1cc(F)c(OCc2c(-c3ccc4c(c3)OCO4)csc2C(F)(F)F)c(F)c1 [Cpd 37] , is the recorded pEC50 at or above 7?
Satisfied

# bool: pEC50 of CC(Cc1ccc(OCc2c(-c3ncc(Cl)cc3F)nsc2C(F)(F)F)c(F)c1)C(=O)O (stereo not shown) [Cpd 266] >= 7
Not satisfied

Could you verify whether the entry Cc1ccc(-c2snc(C(F)(F)F)c2COc2ccc(CCC(=O)O)c(C)c2C)c(F)c1 [Cpd 155] shows pEC50 of no less than 7?
Not satisfied

====

- test_target: Human GPR120 short form (Homo sapiens)
- Construct: expressed in transfected cells
- Sequence (Q5NUL3 1-361): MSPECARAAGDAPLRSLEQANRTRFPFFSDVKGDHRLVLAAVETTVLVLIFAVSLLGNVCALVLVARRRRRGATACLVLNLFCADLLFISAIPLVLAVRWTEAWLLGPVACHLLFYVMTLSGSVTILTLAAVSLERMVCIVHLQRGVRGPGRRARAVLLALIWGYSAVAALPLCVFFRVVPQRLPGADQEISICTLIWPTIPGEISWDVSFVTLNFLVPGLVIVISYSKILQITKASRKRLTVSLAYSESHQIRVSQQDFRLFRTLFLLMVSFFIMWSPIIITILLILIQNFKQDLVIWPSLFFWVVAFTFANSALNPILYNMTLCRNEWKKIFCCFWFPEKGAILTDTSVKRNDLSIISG
- assay: Human GPR120 calcium flux assay (FLIPR), Procedure Calcium A
- Type: cell-based
- conditions: HEK-293 cells expressing human GPR120 short form, 2500 cells/well; read-out: GPR120 Ca2+ Assay A EC50
pEC50: −log10 of the molar value.
If the reported pEC50 equals or exceeds 7, assign 1.0. If not, assign 0.0.

Example results:
INSERT INTO measurements (compound, group) VALUES
  ('OCCCc1cc(F)c(OCc2c(-c3ccc(Cl)cc3)csc2C(F)(F)F)c(F)c1', 0.0),
  ('CCc1ccc(-c2sccc2COc2ccc(CCC(=O)O)c(F)c2F)cc1', 0.0),
  ('CC(Cc1ccc(OCc2c(-c3ccc(Cl)cc3)nsc2C(F)(F)F)cc1)C(=O)O (stereo not drawn)', 0.0),
  ('Cc1c(CCC(=O)O)ccc(OCc2c(-c3ccc(Cl)c(F)c3)nsc2C(F)(F)F)c1C', 1.0),
  ('O=C(O)CCc1ccc(OCc2c(Cl)nsc2-c2ccc(Cl)cc2)c(F)c1F', 1.0),
  ('CCc1ccc(-c2snc(Cl)c2COc2ccc(CCC(=O)O)c(C)c2C)cc1', 1.0);

Here is the next item to consider.
Threshold query (pEC50 >= 7) on CCc1ccc(-c2cc(F)sc2COc2ccc(CCC(=O)O)c(C)c2C)cc1
1.0
